Test: Half life period was determined after intravenous administration of 3 mg/kg
Assay type: ADME, organism-based
Parameters: dose 3 mg/kg, route intravenous
Conditions: in vivo
endpoint name: half-life (min)
Field format: number, assumed min, no unit text.

Lab note: Cc1cc(-c2c(OCC[C@@H]3CCN3)c3cc(C(=O)Nc4ccncn4)c(Cl)cc3[nH]c2=O)cc(C)c1C gave half-life of 300

###

Target: Gonadotropin-releasing hormone receptor (Homo sapiens)
Test: Functional antagonism at the human GnRH receptor (PI turnover)
endpoint name: IC50 (nM)
Field format: number, assumed nM, no unit text.

Lab note: Cc1cc(-c2c(OCC[C@@H]3CCN3)c3cc(C(=O)Nc4ccncn4)c(Cl)cc3[nH]c2=O)cc(C)c1C gave IC50 of 1

###

Experiment: Plasma clearance was determined fter intravenous administration of a dose of 0.5 mg/kg
Format: ADME, organism-based
Set-up: dose 0.5 mg/kg, route intravenous
Conditions: read-out: ClP
endpoint name: clearance (mL/min/kg)
Field format: number, assumed mL/min/kg, no unit text.

Lab note: Cc1cc(-c2c(OCC[C@@H]3CCN3)c3cc(C(=O)Nc4ccncn4)c(Cl)cc3[nH]c2=O)cc(C)c1C gave clearance of 30

###

Assay: Half life period was determined after intravenous administration of 0.5 mg/kg
Assay type: ADME, organism-based
Parameters: dose 0.5 mg/kg, route intravenous
Settings: in vivo
endpoint name: half-life (h)
Field format: number, assumed h, no unit text.

Lab note: Cc1cc(-c2c(OCC[C@@H]3CCN3)c3cc(C(=O)Nc4ccncn4)c(Cl)cc3[nH]c2=O)cc(C)c1C gave half-life of 9.5

###

Molecular target: Gonadotropin-releasing hormone receptor (Homo sapiens)
Sequence (P30968 whole entry): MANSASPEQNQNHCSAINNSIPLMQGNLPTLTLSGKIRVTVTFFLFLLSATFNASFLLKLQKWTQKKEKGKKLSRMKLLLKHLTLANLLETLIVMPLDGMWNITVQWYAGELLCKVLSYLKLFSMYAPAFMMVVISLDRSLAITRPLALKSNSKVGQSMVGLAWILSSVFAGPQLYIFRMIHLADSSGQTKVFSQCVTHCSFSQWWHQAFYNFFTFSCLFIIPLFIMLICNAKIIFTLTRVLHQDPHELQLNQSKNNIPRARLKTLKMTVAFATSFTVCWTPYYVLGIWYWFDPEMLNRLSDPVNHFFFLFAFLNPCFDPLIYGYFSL
Assay: In vitro inhibition of binding to GnRH receptor in human
endpoint name: IC50 (nM)
Field format: number, assumed nM, no unit text.

Lab note: Cc1cc(-c2c(OCC[C@@H]3CCN3)c3cc(C(=O)Nc4ccncn4)c(Cl)cc3[nH]c2=O)cc(C)c1C gave IC50 of 0.44

###

Test: Area under curve was determined after intravenous administration of a dose of 0.5 mg/kg
Type: ADME, organism-based
Design: dose 0.5 mg/kg, route intravenous
Conditions: in vivo
endpoint name: AUC (ng·h/mL)
Field format: number, assumed ng·h/mL, no unit text.

Lab note: Cc1cc(-c2c(OCC[C@@H]3CCN3)c3cc(C(=O)Nc4ccncn4)c(Cl)cc3[nH]c2=O)cc(C)c1C gave AUC of 303

###

Experiment: Plasma clearance was determined fter intravenous administration of a dose of 3 mg/kg
Format: ADME, organism-based
Set-up: dose 3 mg/kg, route intravenous
Conditions: read-out: ClP
endpoint name: clearance (mL/min/kg)
Field format: number, assumed mL/min/kg, no unit text.

Lab note: Cc1cc(-c2c(OCC[C@@H]3CCN3)c3cc(C(=O)Nc4ccncn4)c(Cl)cc3[nH]c2=O)cc(C)c1C gave clearance of 33
